# Bliss interaction score annotations
Tested on: S. aureus DSM 20231;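 further: first quartile when negative (synergy) and third quartile when positive (antagonism)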
Assay: Bliss interaction score (quartile over a dose matrix) (fitness difference); higher = more antagonism (negative = synergy)
ASSAY_ENDPOINT: Bliss interaction score

COMPOUND	TGT	QUANTITATIVE_READOUT
CN(C)C(=O)C(CCN1CCC(O)(c2ccc(Cl)cc2)CC1)(c1ccccc1)c1ccccc1 [Loperamide] + CN[C@@H]1[C@H](O)[C@H](NC)[C@H]2O[C@@]3(O)C(=O)C[C@@H](C)O[C@H]3O[C@@H]2[C@H]1O [Spectinomycin]	S. aureus DSM 20231	0.104
CC1(C)S[C@@H]2[C@H](NC(=O)[C@H](N)c3ccc(O)cc3)C(=O)N2[C@H]1C(=O)O [Amoxicillin] + CC[C@H]1OC(=O)[C@H](C)[C@@H](O[C@H]2C[C@@](C)(OC)[C@@H](O)[C@H](C)O2)[C@H](C)[C@@H](O[C@@H]2O[C@H](C)C[C@H](N(C)C)[C@H]2O)[C@](C)(O)C[C@@H](C)C(=O)[C@H](C)[C@@H](O)[C@]1(C)O [Erythromycin]	S. aureus DSM 20231	-0.023
CC1(C)S[C@@H]2[C@H](NC(=O)[C@H](N)c3ccc(O)cc3)C(=O)N2[C@H]1C(=O)O [Amoxicillin] + COc1cc(Cc2cnc(N)nc2N)cc(OC)c1OC [Trimethoprim]	S. aureus DSM 20231	-0.0714
CC1(C)S[C@@H]2[C@H](NC(=O)[C@H](N)c3ccc(O)cc3)C(=O)N2[C@H]1C(=O)O [Amoxicillin] + Cc1cc(NS(=O)(=O)c2ccc(N)cc2)no1 [Sulfamethoxazol]	S. aureus DSM 20231	-0.0441
CC1(C)S[C@@H]2[C@H](NC(=O)[C@H](N)c3ccc(O)cc3)C(=O)N2[C@H]1C(=O)O [Amoxicillin] + CC[C@H]1OC(=O)[C@H](C)C(=O)[C@H](C)[C@@H](O[C@@H]2O[C@H](C)C[C@H](N(C)C)[C@H]2O)[C@](C)(OC)C[C@@H](C)C(=O)[C@H](C)[C@H]2N(CCCCn3cnc(-c4cccnc4)c3)C(=O)O[C@]12C [Telithromycin]	S. aureus DSM 20231	-0.0292
CN(C)C(=O)C(CCN1CCC(O)(c2ccc(Cl)cc2)CC1)(c1ccccc1)c1ccccc1 [Loperamide] + CN[C@@H]1[C@H](O[C@H]2[C@H](O[C@H]3[C@H](O)[C@@H](O)[C@H](N=C(N)N)[C@@H](O)[C@@H]3N=C(N)N)O[C@@H](C)[C@]2(O)C=O)O[C@@H](CO)[C@H](O)[C@H]1O [Streptomycin]	S. aureus DSM 20231	-0.236
Cn1nnc(-c2ccc(-c3ccc(N4C[C@H](CO)OC4=O)cc3F)cn2)n1 [Tedizolid] + CC[C@H]1OC(=O)[C@H](C)C(=O)[C@H](C)[C@@H](O[C@@H]2O[C@H](C)C[C@H](N(C)C)[C@H]2O)[C@](C)(OC)C[C@@H](C)C(=O)[C@H](C)[C@H]2N(CCCCn3cnc(-c4cccnc4)c3)C(=O)O[C@]12C [Telithromycin]	S. aureus DSM 20231	-0.0684
CCCCCCCCCC(=O)N[C@@H](Cc1c[nH]c2ccccc12)C(=O)N[C@H](CC(N)=O)C(=O)N[C@@H](CC(=O)O)C(=O)N[C@@H]1C(=O)NCC(=O)N[C@@H](CCCN)C(=O)N[C@@H](CC(=O)O)C(=O)N[C@H](C)C(=O)N[C@@H](CC(=O)O)C(=O)NCC(=O)N[C@H](CO)C(=O)N[C@@H]([C@H](C)CC(=O)O)C(=O)N[C@@H](CC(=O)c2ccccc2N)C(=O)O[C@@H]1C [Daptomycin] + CO[C@@H]1[C@@H](OC(N)=O)[C@@H](O)[C@H](Oc2ccc3c(O)c(NC(=O)c4ccc(O)c(CC=C(C)C)c4)c(=O)oc3c2C)OC1(C)C [Novobiocin]	S. aureus DSM 20231	0.0439
CC1(C)S[C@@H]2[C@H](NC(=O)[C@H](N)c3ccc(O)cc3)C(=O)N2[C@H]1C(=O)O [Amoxicillin] + O=C(O[C@@H]1Cc2c(O)cc(O)cc2O[C@@H]1c1cc(O)c(O)c(O)c1)c1cc(O)c(O)c(O)c1 [EGCG]	S. aureus DSM 20231	0.0606
CN(C)C(=O)C(CCN1CCC(O)(c2ccc(Cl)cc2)CC1)(c1ccccc1)c1ccccc1 [Loperamide] + CO[C@H]1/C=C/O[C@@]2(C)Oc3c(C)c(O)c4c(O)c(c(/C=N/N5CCN(C)CC5)c(O)c4c3C2=O)NC(=O)/C(C)=C\C=C\[C@H](C)[C@H](O)[C@@H](C)[C@@H](O)[C@@H](C)[C@H](OC(C)=O)[C@@H]1C [Rifampicin]	S. aureus DSM 20231	-0.0475
CCN(CC)CCOC(=O)c1ccc(N)cc1 [Procaine] + CC[C@H]1OC(=O)[C@H](C)C(=O)[C@H](C)[C@@H](O[C@@H]2O[C@H](C)C[C@H](N(C)C)[C@H]2O)[C@](C)(OC)C[C@@H](C)C(=O)[C@H](C)[C@H]2N(CCCCn3cnc(-c4cccnc4)c3)C(=O)O[C@]12C [Telithromycin]	S. aureus DSM 20231	-0.0287
C[C@H]1COc2c(N3CCN(C)CC3)c(F)cc3c(=O)c(C(=O)O)cn1c23 [Levofloxacin] + CN[C@@H]1[C@H](O)[C@H](NC)[C@H]2O[C@@]3(O)C(=O)C[C@@H](C)O[C@H]3O[C@@H]2[C@H]1O [Spectinomycin]	S. aureus DSM 20231	0.0353
CC1(C)S[C@@H]2[C@H](NC(=O)[C@H](N)c3ccc(O)cc3)C(=O)N2[C@H]1C(=O)O [Amoxicillin] + CO/N=C(\C(=O)N[C@@H]1C(=O)N2C(C(=O)O)=C(COC(C)=O)CS[C@H]12)c1csc(N)n1 [Cefotaxime]	S. aureus DSM 20231	-0.14
